System: giant foxtail
PROCEDURE_TEXT: Test C postemergence
Format: in vivo, Setaria faberii
PARTICULARS: 16 g ai/ha, postemergence; 0 is no effect, 100 is complete control
Excerpt: […]
METRIC_NAME: Plant response rating (0 to 100), Foxtail, Giant
API doc: respond with a numeric literal and nothing else, no unit.

Lab note: need Plant response rating (0 to 100), Foxtail, Giant with giant foxtail for entry FCc1cn(-c2c(F)cccc2Oc2ncc(Cl)cn2)nn1 [Compound 154] , please look it up.
5

Lab note: need Plant response rating (0 to 100), Foxtail, Giant with giant foxtail for entry FC(F)(F)c1cnn(-c2c(Cl)cccc2Oc2ncc(Cl)cn2)c1 [Compound 167] , please look it up.
10

Lab note: need Plant response rating (0 to 100), Foxtail, Giant with giant foxtail for entry CC(=NO)c1cn(-c2c(Br)cccc2Oc2ncc(Cl)cn2)nn1 [Compound 115] , please look it up.
5

Lab note: need Plant response rating (0 to 100), Foxtail, Giant with giant foxtail for entry N#Cc1cnn(-c2c(Oc3ncc(Cl)cn3)cccc2C(F)F)c1 [Compound 236] , please look it up.
5
